The measured values listed here are drawn from the supplement of paper PMC7877785.

runDescription: self-splicing fitness, log relative to wild type (ln ratio); higher = more splicing; Tetrahymena group I intron in knt gene, E. coli kanamycin selection, DiMSum; sequences stand for … in CUCUCU…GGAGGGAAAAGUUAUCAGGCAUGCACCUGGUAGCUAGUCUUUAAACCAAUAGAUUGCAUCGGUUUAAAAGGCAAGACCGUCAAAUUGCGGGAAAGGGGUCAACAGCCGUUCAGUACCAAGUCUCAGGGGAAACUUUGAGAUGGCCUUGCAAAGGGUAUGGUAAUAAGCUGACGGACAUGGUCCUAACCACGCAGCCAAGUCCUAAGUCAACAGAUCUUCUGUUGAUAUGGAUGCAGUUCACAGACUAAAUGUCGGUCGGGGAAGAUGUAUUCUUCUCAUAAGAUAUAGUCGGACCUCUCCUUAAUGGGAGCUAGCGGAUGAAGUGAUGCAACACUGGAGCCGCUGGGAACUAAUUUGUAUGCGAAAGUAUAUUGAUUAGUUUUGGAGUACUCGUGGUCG;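 note: selection with 25 µg/mL kanamycin versus none on LB agar overnight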
measurementSetup: 30 °C
Entries annotated with measured self-splicing fitness (ln)
Write no unit; give the number alone.

AACGAGCAAUAUUACGGCCA : -3.21

Entry CAUGAGCAAUAUUACGCCCG needs its self-splicing fitness (ln) filled in; supply it. -1.56

Entry UUUAAGCAAUAUUACGGUCG needs its self-splicing fitness (ln) filled in; supply it. -0.794

Entry GUCUAGCAAUAUUACGGAUA needs its self-splicing fitness (ln) filled in; supply it. -1.26

Entry UUCCAGCAAUAUUACGUUGA needs its self-splicing fitness (ln) filled in; supply it. -1.63

Entry GCGAAGCAAUAUUACGUGCU needs its self-splicing fitness (ln) filled in; supply it. -2.63

Entry CAAGAGCAAUAUUACGCGUC needs its self-splicing fitness (ln) filled in; supply it. -2.16

###

Entries annotated with measured self-splicing fitness (ln)
runDescription: self-splicing fitness, log relative to wild type (ln ratio); higher = more splicing; Tetrahymena group I intron in knt gene, E. coli kanamycin selection, DiMSum; sequences stand for … in CUCUCU…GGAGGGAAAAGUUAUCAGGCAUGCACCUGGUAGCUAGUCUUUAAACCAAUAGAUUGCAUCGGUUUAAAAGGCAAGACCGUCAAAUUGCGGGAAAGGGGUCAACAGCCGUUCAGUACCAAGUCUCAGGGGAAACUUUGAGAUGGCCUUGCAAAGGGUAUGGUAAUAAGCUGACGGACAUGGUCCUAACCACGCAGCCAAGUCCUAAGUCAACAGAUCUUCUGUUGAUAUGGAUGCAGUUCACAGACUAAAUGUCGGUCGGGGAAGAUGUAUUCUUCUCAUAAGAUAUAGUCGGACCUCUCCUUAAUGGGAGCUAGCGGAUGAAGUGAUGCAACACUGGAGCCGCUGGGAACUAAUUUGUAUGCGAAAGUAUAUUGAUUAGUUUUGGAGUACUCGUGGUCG
measurementSetup: 37 °C
Write no unit; give the number alone.

Entry AUGAAGCAAUAUUACGUCUA needs its self-splicing fitness (ln) filled in; supply it. 0.623

Entry CAUAAGCAAUAUUACGUCGG needs its self-splicing fitness (ln) filled in; supply it. -0.568

Entry GAGCAGCAAUAUUACGUAGU needs its self-splicing fitness (ln) filled in; supply it. -1.01

Entry CAGAAGCAAUAUUACGGGGC needs its self-splicing fitness (ln) filled in; supply it. -2.89

Entry UCGAAGCAAUAUUACGAUUU needs its self-splicing fitness (ln) filled in; supply it. -1.97

Entry CCGCAGCAAUAUUACGUAAC needs its self-splicing fitness (ln) filled in; supply it. -2.7

###

Entries annotated with measured self-splicing fitness (ln)
runDescription: self-splicing fitness, log relative to wild type (ln ratio); higher = more splicing; Tetrahymena group I intron in knt gene, E. coli kanamycin selection, DiMSum; sequences stand for … in CUCUCU…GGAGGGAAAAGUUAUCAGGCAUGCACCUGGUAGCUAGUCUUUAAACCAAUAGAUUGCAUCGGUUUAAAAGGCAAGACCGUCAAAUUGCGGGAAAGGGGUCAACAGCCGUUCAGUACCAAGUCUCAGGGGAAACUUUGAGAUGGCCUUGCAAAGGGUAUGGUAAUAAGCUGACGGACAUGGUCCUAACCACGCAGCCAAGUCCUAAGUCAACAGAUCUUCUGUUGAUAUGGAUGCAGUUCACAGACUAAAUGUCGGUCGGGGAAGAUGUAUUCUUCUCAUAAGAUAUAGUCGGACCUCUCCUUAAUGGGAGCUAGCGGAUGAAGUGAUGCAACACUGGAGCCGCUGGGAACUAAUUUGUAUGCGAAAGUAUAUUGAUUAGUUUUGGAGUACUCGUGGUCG
measurementSetup: 30 °C

Check out these entries, answers already filled in.
UCCGAGCAAUAUUACGGUUC : -3.78
ACUAAGCAAUAUUACGGACU : 0.14
CAAAAGCAAUAUUACGUACC : -2.56
GAUUAGCAAUAUUACGUUCC : -2.41

Entry AUACAGCAAUAUUACGGGCA needs its self-splicing fitness (ln) filled in; supply it. -0.996

Entry CCGCAGCAAUAUUACGAGGG needs its self-splicing fitness (ln) filled in; supply it. -1.99

Entry UCCAAGCAAUAUUACGGUUC needs its self-splicing fitness (ln) filled in; supply it. -3.22

Entry AAAAAGCAAUAUUACGGGUC needs its self-splicing fitness (ln) filled in; supply it. -3.39

Entry CGAUAGCAAUAUUACGCGGU needs its self-splicing fitness (ln) filled in; supply it. -3.13

Entry UAGCAGCAAUAUUACGCAGC needs its self-splicing fitness (ln) filled in; supply it. -2.6

Entry AUUGAGCAAUAUUACGUUCU needs its self-splicing fitness (ln) filled in; supply it. -2.53

Entry UGGCAGCAAUAUUACGGCGA needs its self-splicing fitness (ln) filled in; supply it. 0.0623

Entry GUUCAGCAAUAUUACGCGAA needs its self-splicing fitness (ln) filled in; supply it. -2.26

Entry GCGAAGCAAUAUUACGCUCG needs its self-splicing fitness (ln) filled in; supply it. -2.95

Entry UUGUAGCAAUAUUACGGGUC needs its self-splicing fitness (ln) filled in; supply it. -3.03

Entry AAACAGCAAUAUUACGAAAU needs its self-splicing fitness (ln) filled in; supply it. -2.72

Entry UAGAAGCAAUAUUACGCGAG needs its self-splicing fitness (ln) filled in; supply it. -0.342

Entry UAAUAGCAAUAUUACGAGCA needs its self-splicing fitness (ln) filled in; supply it. -1.64

Entry UGACAGCAAUAUUACGGUGG needs its self-splicing fitness (ln) filled in; supply it. -1.56

Entry UCACAGCAAUAUUACGACUG needs its self-splicing fitness (ln) filled in; supply it. -2.18

###

Entries annotated with measured self-splicing fitness (ln)
runDescription: self-splicing fitness, log relative to wild type (ln ratio); higher = more splicing; Tetrahymena group I intron in knt gene, E. coli kanamycin selection, DiMSum; sequences stand for … in CUCUCU…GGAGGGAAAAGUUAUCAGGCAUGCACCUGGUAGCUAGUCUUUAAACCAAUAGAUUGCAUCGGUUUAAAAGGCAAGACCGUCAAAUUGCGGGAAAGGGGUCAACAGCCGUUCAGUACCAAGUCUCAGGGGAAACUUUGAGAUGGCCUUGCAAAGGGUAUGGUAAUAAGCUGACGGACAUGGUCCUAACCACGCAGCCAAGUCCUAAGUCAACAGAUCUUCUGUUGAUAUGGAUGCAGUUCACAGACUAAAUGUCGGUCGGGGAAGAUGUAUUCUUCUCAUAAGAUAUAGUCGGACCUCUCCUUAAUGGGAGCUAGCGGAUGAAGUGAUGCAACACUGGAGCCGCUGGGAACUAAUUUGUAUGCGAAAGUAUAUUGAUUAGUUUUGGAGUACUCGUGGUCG
measurementSetup: 30 °C

GUACAGCAAUAUUACGUUGC : -3.96
GAUUAGCAAUAUUACGAUUC : -2.58
GGGAAGCAAUAUUACGGGAA : -1.55

Entry AAUGAGCAAUAUUACGUGAG needs its self-splicing fitness (ln) filled in; supply it. -3.5

Entry CGCUAGCAAUAUUACGGCAA needs its self-splicing fitness (ln) filled in; supply it. -0.889

Entry CGACAGCAAUAUUACGUCAG needs its self-splicing fitness (ln) filled in; supply it. -2.38

Entry GCGCAGCAAUAUUACGAGGC needs its self-splicing fitness (ln) filled in; supply it. -2.7

Entry GUCCAGCAAUAUUACGGAAC needs its self-splicing fitness (ln) filled in; supply it. -1.88

###

runDescription: self-splicing fitness, log relative to wild type (ln ratio); higher = more splicing; Tetrahymena group I intron in knt gene, E. coli kanamycin selection, DiMSum; sequences stand for … in CUCUCU…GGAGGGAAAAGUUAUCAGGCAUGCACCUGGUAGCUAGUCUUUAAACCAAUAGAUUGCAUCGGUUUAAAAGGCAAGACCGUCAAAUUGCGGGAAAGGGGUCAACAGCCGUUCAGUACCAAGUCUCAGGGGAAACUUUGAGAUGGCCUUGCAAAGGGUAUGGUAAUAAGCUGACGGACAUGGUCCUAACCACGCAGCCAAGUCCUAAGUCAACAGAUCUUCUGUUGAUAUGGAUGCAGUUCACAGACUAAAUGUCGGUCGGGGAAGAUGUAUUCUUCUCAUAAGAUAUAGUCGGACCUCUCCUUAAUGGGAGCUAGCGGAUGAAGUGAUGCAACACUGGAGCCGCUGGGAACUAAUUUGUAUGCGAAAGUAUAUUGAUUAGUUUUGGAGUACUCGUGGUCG
measurementSetup: 30 °C
quantity: self-splicing fitness (ln)
Write no unit; give the number alone.

Check out these entries, answers already filled in.
UGGCAGCAAUAUUACGCGGC : -4.17
UCAAAGCAAUAUUACGCCUU : -3.63

Entry CGGGAGCAAUAUUACGUGCU needs its self-splicing fitness (ln) filled in; supply it. -3.7

Entry UUAUAGCAAUAUUACGUCGU needs its self-splicing fitness (ln) filled in; supply it. -3.1
